# SYSTEM_NAME: human AR (Homo sapiens, UniProt P10275)
# Construct: expressed in transfected cells; host or cells: COS-1
# Sequence (P10275 1-920): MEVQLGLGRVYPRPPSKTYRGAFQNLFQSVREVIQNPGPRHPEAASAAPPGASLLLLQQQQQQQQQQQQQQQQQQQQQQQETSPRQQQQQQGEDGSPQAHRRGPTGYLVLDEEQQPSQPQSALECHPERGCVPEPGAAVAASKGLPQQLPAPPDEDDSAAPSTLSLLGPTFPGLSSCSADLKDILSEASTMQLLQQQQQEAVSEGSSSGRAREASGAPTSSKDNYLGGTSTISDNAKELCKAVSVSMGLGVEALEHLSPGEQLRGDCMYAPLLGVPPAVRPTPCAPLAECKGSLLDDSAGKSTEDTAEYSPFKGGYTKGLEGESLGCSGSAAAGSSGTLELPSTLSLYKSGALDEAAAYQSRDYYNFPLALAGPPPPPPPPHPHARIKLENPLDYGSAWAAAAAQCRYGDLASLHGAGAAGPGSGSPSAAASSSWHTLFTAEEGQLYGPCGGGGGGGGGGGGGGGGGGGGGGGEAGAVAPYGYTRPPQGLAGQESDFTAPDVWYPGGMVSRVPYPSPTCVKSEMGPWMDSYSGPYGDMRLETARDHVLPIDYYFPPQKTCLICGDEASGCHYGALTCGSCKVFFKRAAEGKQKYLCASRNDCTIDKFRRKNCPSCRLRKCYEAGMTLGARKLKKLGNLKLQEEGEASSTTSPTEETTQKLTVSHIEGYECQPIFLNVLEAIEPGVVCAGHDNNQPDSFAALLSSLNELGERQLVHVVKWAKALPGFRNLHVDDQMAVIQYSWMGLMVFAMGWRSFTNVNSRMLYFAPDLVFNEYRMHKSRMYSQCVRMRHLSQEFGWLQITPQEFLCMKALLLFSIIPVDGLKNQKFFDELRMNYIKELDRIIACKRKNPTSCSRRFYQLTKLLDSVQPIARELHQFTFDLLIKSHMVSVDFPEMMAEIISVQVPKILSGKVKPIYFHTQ
# TEST_SUMMARY: Competitive AR binding assay against [3H]-R1881 in transiently transfected COS-1 cells
# CONDITION_SUMMARY: Table 1; compound 13.4 μM; [3H]-R1881 1.34 nM; complete inhibition equals 100%; read-out: Inhibition of [3H]-R1881 binding at 1.34 nM ± S.D.
Exercise: state measured inhibition at 13.4 µM for each of the compounds provided.
Give bare numbers, in %.

Before answering, review these 5 worked examples.
1) CC(C)CN1C(CCCc2ccccc2)=NOC1(C)Cc1ccccc1 (stereo not drawn) [Example 68ab] :: 14.7
2) O=[N+]([O-])c1ccc(C2=NOC3CCCCC23)c(C(F)(F)F)c1 (single isomer, unassigned) [Example 38a] :: 94.5
3) CC1(Cc2ccccc2)CC(c2ccc(C#N)cc2)=NO1 (stereo not drawn) [Example 8ab] :: 30.4
4) CC(C)(O)C(=O)Nc1ccc([N+](=O)[O-])c(C(F)(F)F)c1 [Hydroxyflutamide, reference compound] :: 91.1
5) CCCCN1C(c2cccc(Cl)c2)=NOC1(C)Cc1ccccc1 (stereo not drawn) [Example 50a] :: 63.8

I have 4 compounds here; please give me inhibition at 13.4 µM for each one.
1. CCCCN1C(CCc2ccc(OC)cc2)=NOC1(C)Cc1ccccc1 (stereo not drawn) [Example 58ab]
2. CC1(Cc2ccccc2)CC(c2cccc(Cl)c2)=NO1 (stereo not drawn) [Example 6ab]
3. O=[N+]([O-])c1ccc(C2=NOC3CCCCC23)cc1C(F)(F)F (stereo not drawn) [Example 37ab]
4. CC1(Cc2ccccc2)CC(c2ccc3ccccc3c2)=NO1 (stereo not drawn) [Example 9ab]

-- reply
1: 8.2; 2: 31.4; 3: 93.5; 4: 63.7

###

# SYSTEM_NAME: human AR (Homo sapiens, UniProt P10275)
# Construct: expressed in transfected cells; host or cells: COS-1
# Sequence (P10275 1-920): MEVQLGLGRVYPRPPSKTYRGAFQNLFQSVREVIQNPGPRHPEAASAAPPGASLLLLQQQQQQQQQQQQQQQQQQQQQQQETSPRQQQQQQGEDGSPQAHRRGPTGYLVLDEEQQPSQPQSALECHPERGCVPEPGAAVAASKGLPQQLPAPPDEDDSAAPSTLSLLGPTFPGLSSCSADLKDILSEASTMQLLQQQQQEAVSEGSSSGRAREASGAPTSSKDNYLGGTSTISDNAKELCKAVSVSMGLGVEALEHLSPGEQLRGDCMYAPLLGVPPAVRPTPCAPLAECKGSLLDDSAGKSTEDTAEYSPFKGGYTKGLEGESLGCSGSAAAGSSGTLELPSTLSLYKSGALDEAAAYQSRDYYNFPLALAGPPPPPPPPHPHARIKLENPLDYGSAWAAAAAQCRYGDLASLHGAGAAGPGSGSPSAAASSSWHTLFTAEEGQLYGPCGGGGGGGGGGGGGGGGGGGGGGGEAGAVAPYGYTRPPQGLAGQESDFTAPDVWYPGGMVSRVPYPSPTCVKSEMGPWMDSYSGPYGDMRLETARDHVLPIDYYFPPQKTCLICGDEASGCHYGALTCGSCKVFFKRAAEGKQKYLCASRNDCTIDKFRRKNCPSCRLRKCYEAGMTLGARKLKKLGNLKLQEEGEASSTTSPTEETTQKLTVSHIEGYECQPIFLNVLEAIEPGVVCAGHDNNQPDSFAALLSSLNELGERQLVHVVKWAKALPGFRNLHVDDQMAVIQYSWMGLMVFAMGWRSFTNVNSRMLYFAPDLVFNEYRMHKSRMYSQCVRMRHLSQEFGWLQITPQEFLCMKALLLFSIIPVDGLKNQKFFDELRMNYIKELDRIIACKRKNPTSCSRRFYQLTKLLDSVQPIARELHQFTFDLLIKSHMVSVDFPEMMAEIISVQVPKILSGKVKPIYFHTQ
# TEST_SUMMARY: AR antagonism assay: inhibition of transcriptional activation of AR (Probasin-luc reporter, COS-1 cells)
# Type: cell-based
# CONDITION_SUMMARY: COS-1, 18 h, compound 10.0 μM; relative luciferase response: 100% for testosterone (no antiandrogenic effect), 0% for complete antagonism; read-out: AR antagonism against 100 nM testosterone ± S.D.
Assignment: determine reported remaining activity at 10 µM for the given compounds.

1. O=[N+]([O-])c1ccc(C2=NOC3CCCCC23)cc1C(F)(F)F (stereo not shown) [Example 37ab] :: 10.6%

Give me remaining activity at 10 µM for each of these compounds, listed below.
1. Fc1ccc(C2=NOC3CCCCC23)c(C(F)(F)F)c1 (stereo not shown) [Example 36a]
2. N#Cc1ccc(C2=NOC3CCCCC23)c(C(F)(F)F)c1 (stereo not shown) [Example 89a]
3. Fc1ccc(C2=NOC3CCCCCCC23)c(C(F)(F)F)c1 (stereo not shown) [Example 44a]

-- reply
["49.7%", "27.5%", "19.8%"]

Parameter requested: remaining activity at 10 µM. Apply to each item below.
1. N#Cc1ccc(C2=NOC3CCCCCCC23)cc1C(F)(F)F (stereo not shown) [Example 92ab]
2. Oc1ccc(C2=NOC3CCCCC23)cc1 (stereo not shown) [Example 26a]
3. Fc1ccc(C2=NOC3CCCC23)c(C(F)(F)F)c1 (stereo not shown) [Example 20a]
4. N#Cc1ccc(C2=NOC3CCCC23)c(C(F)(F)F)c1 (stereo not shown) [Example 86ab]
5. Fc1ccc(C2=NOC3CCCC23)cc1C(F)(F)F (stereo not shown) [Example 19ab]
6. N#Cc1ccc(C2=NOC3CCCCCC23)cc1C(F)(F)F (stereo not shown) [Example 90ab]

-- reply
24%
25.7%
23.2%
29.3%
54.6%
12.6%

###

# SYSTEM_NAME: human AR (Homo sapiens)
# Construct: expressed in transfected cells; host or cells: COS-1
# Sequence (P10275 1-920): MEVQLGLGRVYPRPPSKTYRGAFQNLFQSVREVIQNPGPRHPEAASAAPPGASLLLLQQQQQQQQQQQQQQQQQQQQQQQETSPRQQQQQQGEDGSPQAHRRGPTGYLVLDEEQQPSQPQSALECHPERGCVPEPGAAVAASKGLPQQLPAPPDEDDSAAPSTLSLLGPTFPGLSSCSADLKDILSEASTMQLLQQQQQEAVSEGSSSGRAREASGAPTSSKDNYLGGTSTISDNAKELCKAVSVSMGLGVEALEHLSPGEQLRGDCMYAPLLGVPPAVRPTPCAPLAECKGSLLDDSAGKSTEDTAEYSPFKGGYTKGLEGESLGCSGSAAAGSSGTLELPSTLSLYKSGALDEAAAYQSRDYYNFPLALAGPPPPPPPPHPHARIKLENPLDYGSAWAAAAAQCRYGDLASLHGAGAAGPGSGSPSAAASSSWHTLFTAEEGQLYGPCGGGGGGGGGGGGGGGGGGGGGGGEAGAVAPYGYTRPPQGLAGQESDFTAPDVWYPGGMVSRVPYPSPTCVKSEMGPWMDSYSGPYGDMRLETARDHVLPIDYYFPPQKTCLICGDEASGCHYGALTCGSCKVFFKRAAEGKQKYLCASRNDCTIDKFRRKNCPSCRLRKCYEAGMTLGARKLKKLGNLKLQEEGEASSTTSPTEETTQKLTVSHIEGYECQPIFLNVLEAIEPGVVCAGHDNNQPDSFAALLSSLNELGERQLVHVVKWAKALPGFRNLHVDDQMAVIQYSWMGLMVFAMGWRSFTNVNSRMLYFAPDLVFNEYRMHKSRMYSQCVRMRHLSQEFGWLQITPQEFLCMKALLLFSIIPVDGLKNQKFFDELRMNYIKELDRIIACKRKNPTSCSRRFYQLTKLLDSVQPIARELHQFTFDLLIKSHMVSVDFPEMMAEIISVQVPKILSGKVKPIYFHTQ
# TEST_SUMMARY: Competitive AR binding assay against [3H]-R1881 in transiently transfected COS-1 cells
# CONDITION_SUMMARY: Table 1; compound 13.4 μM; [3H]-R1881 1.34 nM; complete inhibition equals 100%
Would you please tag the item 1.0 when its Inhibition of [3H]-R1881 binding at 1.34 nM ± S.D. is 30% or above, and 0.0 when it is below?

-- ask Form field: Inhibition of [3H]-R1881 binding at 1.34 nM ± S.D. at least 30%? Entry: COc1ccc(C2=NOC(Cc3ccccc3)(c3ccccc3)C2)cc1 (single isomer, unassigned) [Example 14b]
-- reply 0.0

-- ask hey, is Inhibition of [3H]-R1881 binding at 1.34 nM ± S.D. for this one >= 30%? CCCCN1C(c2cccc(Cl)c2)=NOC1(C)Cc1ccccc1 (stereo not shown) [Example 50b]
-- reply 1.0

-- ask Entry COc1ccc(CC2=NOC(C)(Cc3ccccc3)N2CC(C)C)cc1 (single isomer, unassigned) [Example 65a] : is its Inhibition of [3H]-R1881 binding at 1.34 nM ± S.D. no less than 30%?
-- reply 0.0

-- ask Please indicate if the recorded Inhibition of [3H]-R1881 binding at 1.34 nM ± S.D. for O=[N+]([O-])c1ccc(C2=NOC3CCCCC23)cc1 (single isomer, unassigned) [Example 34b] meets or exceeds 30%.
-- reply 0.0

-- ask Decide: Inhibition of [3H]-R1881 binding at 1.34 nM ± S.D. of CC(C)CN1C(c2ccc([N+](=O)[O-])cc2)=NOC1(C)Cc1ccccc1 (single isomer, unassigned) [Example 61a] >= 30%?
-- reply 0.0
